System: CLK4;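 also: KINOMEscan kinase panel screen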
Conditions: concentration: 1 μM, replicates: in singlicate; n = 1
property: %Inh (%)
Report as a plain number; the unit % is understood.

Recorded results for 10 compounds are shown here.
O=C(Nc1cccc(-c2nn3ccccc3c2-c2ccnc(Nc3cccc(C(F)(F)F)c3)n2)c1)c1c(F)cccc1F [GSK292658] = 8
CN1CCN(CCCNc2nccc(-c3c(-c4ccc(F)cc4)nn4cc(C(F)(F)F)ccc34)n2)CC1 [GW621581] = 22
COc1cccc(C2=C(Nc3ccc(Cl)c(C(=O)O)c3)C(=O)NC2=O)c1 [SB-390769] = 17
COc1cc2c(cc1OCCN1CCNCC1)ncc1c3ccc(C#N)cc3[nH]c21 = 91.7
COc1cc(Nc2nccc(N3CCC(NC(=O)Nc4cccc(C(C)=O)c4)C3)n2)cc(OC)c1OC (stereo not drawn) [GSK1379753] = 0
FC(F)(F)c1ccc(/C=C/c2cncnc2Nc2ccc3[nH]c(Cc4ccccc4)nc3c2)cc1 [GW709199] = 0
CN1CCN(Cc2cccc(-c3ccc4c(Nc5ccc(Oc6ccccc6)cc5)ccnc4c3)c2)CC1 [GW578342] = 0
Cl.NC(=O)c1cccc(Nc2nccc(Nc3ccc(Oc4c(Cl)cccc4Cl)c(Cl)c3)n2)c1 [GW659009] = 34
CNC(=O)c1ccccc1Nc1nc(Nc2ccc(N3CCOCC3)cc2)ncc1Cl.Cl [GSK1576028] = 98.8
c1ccc(Oc2ccc(Nc3ccnc4cc(-c5ccc(CNCCN6CCOCC6)o5)ccc34)cc2)nc1 [GW567145] = 0

Could you share which %Inh value was measured for Cn1cc(-c2ccc3c(c2)CCN3C(=O)Cc2cccc(F)c2)c2c(N)ncnc21 [GSK2603358] ?
39

Could you share which %Inh value was measured for CCS(=O)(=O)c1ccc(OC)c(Nc2nccc(-c3c(-c4cccc(NC(=O)c5c(F)cccc5F)c4)nn4ncccc34)n2)c1 [GSK326180] ?
21

Could you share which %Inh value was measured for O=C(O)C(F)(F)F.O=C(O)C(F)(F)F.O=c1[nH]ccc2nc(N[C@@H]3CCCNC3)nc(Nc3ccc(S(=O)(=O)N4CCOCC4)cc3)c12 [GSK2177277] ?
79

Could you share which %Inh value was measured for Cc1cccc(Nc2nc(N[C@H]3CCNC3)ncc2C(N)=O)c1.Cl [GSK2197149] ?
33

Could you share which %Inh value was measured for Nc1ncc(-c2ccc3nccc(-c4ccncc4)c3c2)cc1S(=O)(=O)N1CCOCC1 [GSK1627798] ?
54

Could you share which %Inh value was measured for c1ccc(-c2cnc3nccnn23)cc1 [AH20685] ?
11

Could you share which %Inh value was measured for CN(c1ccc(NC(=O)Nc2cc(C(F)(F)F)ccc2F)cc1)c1ccnc(Nc2ccc(S(N)(=O)=O)cc2)n1 [GW809893] ?
16

Could you share which %Inh value was measured for `Cn1cc(-c2[nH]c3cc(NC(=O)[C@H](N)C4CCCCC4)cc4c3c2C=NNC4=O)cn1` ?
55

Could you share which %Inh value was measured for Cc1ccc(C)c(NC(=O)NC2CCN(c3ccnc(Nc4ccc(F)cc4)n3)C2)c1 (stereo not drawn) [GSK1379720] ?
0

Could you share which %Inh value was measured for Cc1occc1-c1ncc(OC[C@@H](N)Cc2c[nH]c3ccccc23)cc1-c1ccc2[nH]nc(C)c2c1.O=C(O)C(F)(F)F [GSK682037] ?
9

Numbers sourced from paper PMC5540273.
